experiment: Selectivity index, ratio of IC50 for preferential cytotoxicity against human MIA PaCa-2 cells in DMEM to PC50 for preferential cytotoxicity against human MIA PaCa-2 cells in nutrient-deprived medium; assay type: functional
Label true when Selectivity Index >= 30; otherwise false.

# example entries with known answers
{"Compound": "CC(C)=CCCC1=CC[C@H](C(=O)c2c(O)cccc2O)[C@@H](c2ccc(Cl)cc2)C1 (relative stereo)", "Discrete label": "false"}
{"Compound": "COc1cc(O)c(C(=O)[C@H]2CC=C(CCC=C(C)C)C[C@@H]2c2ccc(F)cc2F)c(O)c1 (relative stereo)", "Discrete label": "true"}
{"Compound": "CC(C)=CCCC1=CC[C@H](C(=O)c2c(O)cccc2O)[C@@H](c2ccc(F)cc2F)C1 (relative stereo)", "Discrete label": "true"}
{"Compound": "COc1cc(O)c(C(=O)[C@H]2CC=C(CCC=C(C)C)C[C@@H]2c2cc(F)ccc2F)c(O)c1 (relative stereo)", "Discrete label": "true"}
{"Compound": "COc1cc(O)c(C(=O)[C@H]2CC=C(CCC=C(C)C)C[C@@H]2c2ccc(F)c(F)c2)c(O)c1 (relative stereo)", "Discrete label": "true"}

# input Hi team, for CC(C)=CCCC1=CC[C@H](C(=O)c2c(O)cccc2O)[C@@H](c2cc(F)cc(F)c2)C1 (relative stereo) , is the recorded Selectivity Index at or above 30?
# output false

# input Hi team, for COc1cc(O)c(C(=O)[C@H]2CC=C(CCC=C(C)C)C[C@@H]2c2cc(F)cc(F)c2)c(O)c1 , is the recorded Selectivity Index at or above 30?
# output false

# input Hi team, for CC(C)=CCCC1=CC[C@H](C(=O)c2c(O)cccc2O)[C@@H](c2cc(F)ccc2F)C1 (relative stereo) , is the recorded Selectivity Index at or above 30?
# output false
